- Tested on: SUD4
- Test Summary: Antitumor activity against BCL6 dependent human SU-DHL-4 cells assessed as cell growth inhibition
- Format: functional, cell-based
Experimental Readout: pIC50
Lab note — pIC50 values are minus log10 of concentrations in M.

# molecule `C[C@@H]1CN(c2ncc(F)c(Nc3ccc(NC(=O)c4cccc(Br)n4)cc3)n2)C[C@H](C)N1` ; its pIC50 = 5.86

====

- Target Or System: B-cell lymphoma 6 protein (Homo sapiens, UniProt P41182)
- Test Summary: Inhibition of D2-SMRT peptide binding to human BCL6 BTB-POZ domain incubated for 60 mins by TR-FRET assay
Experimental Readout: IC50 (nM)
Give just the number in nM; leave the unit off.

# molecule `Cc1ncccc1[C@H]1C[C@@H](c2cccc3nc(N)ccc23)Nc2c(F)cnn21` ; its IC50 = 10
